System: CCRIS mutagenicity, Ames/micronucleus/aberration tests
Assay: CCRIS mutagenicity studies
Settings: Test System: AMES SALMONELLA TYPHIMURIUM; Strain/Indicator: TA98; Metabolic Activation: RAT, LIVER, S-9, PHENOBARBITAL; Method: STANDARD PLATE
Activity calls are given as the source filed them. The rule behind the calls is not given here.

COMPOUND	mutagenic call
C=CC(C)(C)c1cc2cc3c(cc2oc1=O)OC(C(C)(C)OC(C)=O)C3 (stereo not drawn)	inactive; negative
COc1cc2c(c3oc(=O)c4c(c13)CCC4=O)[C@@H]1C=CO[C@@H]1O2	active; positive
C[n+]1ccccc1-c1cccc[n+]1C	active; positive
[Cr]	inactive; negative
COc1cc2c(c3oc(=O)c4c(c13)CCOC4=O)[C@@H]1C=CO[C@@H]1O2	active; positive
CC(=O)Nc1ccc2[nH]c3ccccc3c2c1	active; positive
[Co]	inactive; negative
Nc1cc2c(cc1[N+](=O)[O-])[nH]c1ccccc12	active; positive
O=C(O)/C(Cl)=C(\C(=O)O)C(Cl)Cl	inactive; negative
Nc1ccc2cc3ccccc3cc2c1	active; positive
O=[N+]([O-])c1cccc2c1[nH]c1ccccc12	active; positive
Cc1c2ccncc2c(C)c2c1[nH]c1ccc(N)cc12	active; positive
N=C(N)c1cc2ccc(Br)cc2[nH]1	inactive; negative

====

Test system: CCRIS mutagenicity, Ames/micronucleus/aberration tests
Experiment: CCRIS mutagenicity studies
Settings: Test System: AMES SALMONELLA TYPHIMURIUM; Strain/Indicator: TA1535; Metabolic Activation: HAMSTER, LIVER, S-9, AROCLOR 1254 (10%); Method: PREINCUBATION
Activity calls are given as the source filed them. How the calls were made is not given here.
Classes used: y (active), n (inactive)

COMPOUND	QUALITATIVE_LABEL
O=C1N(CO)C(O)C(O)N1CO (configuration not stated)	n
Cc1ccc(C#N)cc1	n
COC(=O)Nc1nc2ccccc2[nH]1	n
Nc1ccccc1-c1ccccc1	n
O=[N+]([O-])c1ccc(O)c([N+](=O)[O-])c1	n
N#C/C=C/C#N	n
NCCO	n
O=CC(Cl)(Cl)Cl	n
OCCBr	y
CCCCCCCCCCCCOS(=O)(=O)O	n
CCCCC(CC)COCCC#N (configuration not stated)	n
CCN(CC)c1ccc(N)cc1	n
O=C1Nc2ccc(Cl)cc2C(c2ccccc2)=NC1O (configuration not stated)	n
O=c1nc(O)n(Cl)c(=O)n1Cl	n
CC(=O)Oc1ccccc1C(=O)O	n
C=CC(=C)C	n
c1ccc2n[nH]nc2c1	y

====

System: CCRIS mutagenicity, Ames/micronucleus/aberration tests
Test: CCRIS mutagenicity studies
Settings: Test System: AMES SALMONELLA TYPHIMURIUM; Strain/Indicator: TA100; Metabolic Activation: S-9 MIX; Method: STANDARD PLATE
Calls of active or inactive are those of the source. The rule behind the calls is not given here.
Outcome codes: label 1 (active), label 0 (inactive)

COMPOUND	QUALITATIVE_LABEL
C=CCC1=C(C)C(OC(=O)[C@@H]2[C@@H](C=C(C)C)C2(C)C)CC1=O (some centres undefined)	label 1
CCOP(=O)(OCC)O/C(=C\Cl)c1ccc(Cl)cc1Cl	label 0
O=C1[C@H]2CC=CC[C@H]2C(=O)N1SC(Cl)(Cl)Cl	label 1
COP(=S)(OC)Oc1ccc([N+](=O)[O-])c(C)c1	label 1

====

Test system: CCRIS mutagenicity, Ames/micronucleus/aberration tests
Test: CCRIS mutagenicity studies
Conditions: Test System: AMES SALMONELLA TYPHIMURIUM; Strain/Indicator: TA98; Metabolic Activation: S-9; Method: PREINCUBATION
The source made the active and inactive calls. How the calls were made is not given here.
Outcomes: true (1) (active), false (0) (inactive)

COMPOUND	MEASUREMENT_TARGET	QUALITATIVE_LABEL
C=CC(=C)C	CCRIS mutagenicity, Ames/micronucleus/aberration tests	false (0)
Cc1cnc2cc3nc(N)n(C)c3c(C)c2n1	CCRIS mutagenicity, Ames/micronucleus/aberration tests	true (1)
COc1cccc2c1C(=O)c1c(O)c3c(c(O)c1C2=O)C[C@@](O)(C(=O)CO)C[C@@H]3O[C@H]1C[C@H](N)[C@H](O)[C@H](C)O1	CCRIS mutagenicity, Ames/micronucleus/aberration tests	true (1)
CC1CC(C)C(=O)C1=O (stereo unspecified)	CCRIS mutagenicity, Ames/micronucleus/aberration tests	false (0)
O=[N+]([O-])c1ccc2c(c1)Cc1cc(O)ccc1-2	CCRIS mutagenicity, Ames/micronucleus/aberration tests	true (1)
O=NN1CCOCC1	CCRIS mutagenicity, Ames/micronucleus/aberration tests	false (0)

====

System: CCRIS mutagenicity, Ames/micronucleus/aberration tests
Assay: CCRIS mutagenicity studies
Conditions: Test System: AMES SALMONELLA TYPHIMURIUM; Strain/Indicator: TA104; Metabolic Activation: NONE; Method: PREINCUBATION
From the text: The CCRIS database contains chemical records with carcinogenicity, mutagenicity, tumor promotion, and tumor inhibition test results. It was developed by the National Cancer Institute (NCI). Data are derived from studies cited in primary journals, current awareness tools, NCI reports, and other sources. Test results have been reviewed by experts in carcinogenesis and mutagenesis. CCRIS provides historical information from the years 1985 - 2011. It is no longer updated. […]
The source made the active and inactive calls. How the calls were made is not given here.
Classes used: active, inactive

MOLECULE	MEASUREMENT_TARGET	QUALITATIVE_LABEL
CC1=CC(=O)C=C(C)C1=O	CCRIS mutagenicity, Ames/micronucleus/aberration tests	inactive
C=C(C)C=O	CCRIS mutagenicity, Ames/micronucleus/aberration tests	active
O=C(Cl)CCc1ccccc1	CCRIS mutagenicity, Ames/micronucleus/aberration tests	active
CCSCCC(N)C(=O)O (stereo unspecified)	CCRIS mutagenicity, Ames/micronucleus/aberration tests	inactive
O=C/C(=C(/Cl)C(=O)O)C(Cl)Cl	CCRIS mutagenicity, Ames/micronucleus/aberration tests	active
O=C/C(CCl)=C(/Cl)C(=O)O	CCRIS mutagenicity, Ames/micronucleus/aberration tests	active

====

Test system: CCRIS mutagenicity, Ames/micronucleus/aberration tests
Assay: CCRIS mutagenicity studies
Conditions: Test System: AMES SALMONELLA TYPHIMURIUM; Strain/Indicator: TA98; Metabolic Activation: NONE; Method: STANDARD PLATE
Active and inactive are the calls of the source. How the calls were made is not given here.
RECORDED_ENDPOINT: mutagenic call

COMPOUND	RESULT
Nc1ccc(S(=O)(=O)Nc2cnc3c(Cl)cccc3n2)cc1	inactive; negative
O=C1c2c(O)ccc(O)c2C(=O)C2C(O)=CC=C(O)C12 (stereo unspecified)	inactive; negative
CN(C)N=Nc1ccc([N+](=O)[O-])cc1	active; positive
Nc1cc(Cl)cc(Cl)c1	inactive; negative
CCN(CC)C(=S)S[C@@H]1O[C@H](CO)[C@@H](O)[C@H](O)[C@H]1O	inactive; negative
O[C@H]1[C@H]2O[C@H]2c2c(ccc3c4c5c(cccc5cc23)C=C4)[C@@H]1O	active; positive

====

System: CCRIS mutagenicity, Ames/micronucleus/aberration tests
Experiment: CCRIS mutagenicity studies
Conditions: Test System: AMES SALMONELLA TYPHIMURIUM; Strain/Indicator: TA1535; Metabolic Activation: NONE; Method: PREINCUBATION
Active and inactive are the calls of the source. How the calls were made is not given here.
Outcome codes: 1.0 (active), 0.0 (inactive)

MOLECULE	MEASUREMENT_TARGET	QUALITATIVE_LABEL
O=[N+]([O-])c1ccc(/C=C/c2ccc([N+](=O)[O-])cc2S(=O)(=O)O)c(S(=O)(=O)O)c1	CCRIS mutagenicity, Ames/micronucleus/aberration tests	0.0
CC/C(=C(/c1ccc(OCCN(C)C)cc1)c1ccc(OP(=O)(O)O)cc1)c1ccc(C(C)C)cc1	CCRIS mutagenicity, Ames/micronucleus/aberration tests	0.0
CCCN(CCC)S(=O)(=O)c1ccc(C(=O)O)cc1	CCRIS mutagenicity, Ames/micronucleus/aberration tests	0.0
CC(C)C(C)C	CCRIS mutagenicity, Ames/micronucleus/aberration tests	0.0
CCN(CC)c1ccc(N)cc1	CCRIS mutagenicity, Ames/micronucleus/aberration tests	0.0
CC(=O)Oc1ccccc1C(=O)O	CCRIS mutagenicity, Ames/micronucleus/aberration tests	0.0
c1ccc(P(c2ccccc2)c2ccccc2)cc1	CCRIS mutagenicity, Ames/micronucleus/aberration tests	0.0
Nc1cccc2nc3ccccc3cc12	CCRIS mutagenicity, Ames/micronucleus/aberration tests	0.0
CCN(CC)C(=S)SSC(=S)N(CC)CC	CCRIS mutagenicity, Ames/micronucleus/aberration tests	0.0
C=CC(=O)OCC	CCRIS mutagenicity, Ames/micronucleus/aberration tests	0.0
O=C(O)c1ccccc1[N+](=O)[O-]	CCRIS mutagenicity, Ames/micronucleus/aberration tests	0.0
Oc1c(Cl)ccc(Cl)c1Cl	CCRIS mutagenicity, Ames/micronucleus/aberration tests	0.0
Nc1cccc(N)n1	CCRIS mutagenicity, Ames/micronucleus/aberration tests	0.0
O.O.O.O.O.O.[Cl-].[Cl-].[Ni+2]	CCRIS mutagenicity, Ames/micronucleus/aberration tests	0.0
C=C(C)C(=O)OCCCCCCCC(C)C	CCRIS mutagenicity, Ames/micronucleus/aberration tests	0.0
CCCCCCCCCCCCCCCCCC(N)=O	CCRIS mutagenicity, Ames/micronucleus/aberration tests	0.0
O=C(O)C(F)(F)C(F)(F)C(F)(F)C(F)(F)C(F)(F)C(F)(F)C(F)(F)C(F)(F)C(F)(F)F	CCRIS mutagenicity, Ames/micronucleus/aberration tests	0.0
COc1ccc([N+](=O)[O-])cc1N=Nc1c(O)c(C(=O)Nc2cccc([N+](=O)[O-])c2)cc2ccccc12	CCRIS mutagenicity, Ames/micronucleus/aberration tests	0.0
CN1C(=O)C(O)CC1c1cccnc1 (configuration not stated)	CCRIS mutagenicity, Ames/micronucleus/aberration tests	0.0
CCCCOC(=O)c1ccccc1C(=O)OCc1ccccc1	CCRIS mutagenicity, Ames/micronucleus/aberration tests	0.0
Nc1ccc([As](=O)(O)O)cc1	CCRIS mutagenicity, Ames/micronucleus/aberration tests	0.0
[Cl][Mn][Cl]	CCRIS mutagenicity, Ames/micronucleus/aberration tests	0.0
NCc1ccc(CN)cc1	CCRIS mutagenicity, Ames/micronucleus/aberration tests	0.0
COc1ccc([C@H]2O[C@H]2C)cc1	CCRIS mutagenicity, Ames/micronucleus/aberration tests	1.0
CC/C=C/C#N	CCRIS mutagenicity, Ames/micronucleus/aberration tests	0.0
C=CCCl	CCRIS mutagenicity, Ames/micronucleus/aberration tests	1.0
CCCCCCCCCCCCCCCCCC(=O)NCCCC[C@@H](NC(=O)CC[C@@H](NC(=O)[C@H](C)NC(=O)[C@@H](C)O[C@H]1[C@H](O)[C@@H](CO)OC(O)[C@@H]1NC(C)=O)C(N)=O)C(=O)O (some centres not stated)	CCRIS mutagenicity, Ames/micronucleus/aberration tests	0.0
C[N+](C)(C)Cc1ccccc1	CCRIS mutagenicity, Ames/micronucleus/aberration tests	0.0
CNC[C@H](O)c1ccc(O)c(O)c1	CCRIS mutagenicity, Ames/micronucleus/aberration tests	0.0
Cl/C=C/C[N+]12CN3CN(CN(C3)C1)C2	CCRIS mutagenicity, Ames/micronucleus/aberration tests	0.0
NCCO	CCRIS mutagenicity, Ames/micronucleus/aberration tests	0.0
CCCCC(CC)CN (configuration not stated)	CCRIS mutagenicity, Ames/micronucleus/aberration tests	0.0
O=c1nc(O)n(Cl)c(=O)n1Cl	CCRIS mutagenicity, Ames/micronucleus/aberration tests	0.0
CN(C)CCO	CCRIS mutagenicity, Ames/micronucleus/aberration tests	0.0
CC1=CC(=O)C=C2CC[C@@H]3[C@H](CC[C@]4(C)C(=O)CC[C@@H]34)[C@@]12C	CCRIS mutagenicity, Ames/micronucleus/aberration tests	0.0
CCCCN(CCO)CCCC	CCRIS mutagenicity, Ames/micronucleus/aberration tests	0.0
NC(N)=NC(=O)c1nc(Cl)c(N)nc1N	CCRIS mutagenicity, Ames/micronucleus/aberration tests	0.0
CN(C)CCN(Cc1ccsc1)c1ccccn1	CCRIS mutagenicity, Ames/micronucleus/aberration tests	0.0
C=CC(=O)OCC1CO1 (configuration not stated)	CCRIS mutagenicity, Ames/micronucleus/aberration tests	1.0
CCN1CCNC(=O)C1=O	CCRIS mutagenicity, Ames/micronucleus/aberration tests	0.0
CCCCCOc1cccc(NC(=O)O[C@@H]2CCCC[C@H]2N2CCCC2)c1	CCRIS mutagenicity, Ames/micronucleus/aberration tests	0.0
[N-]=[N+]=[N-]	CCRIS mutagenicity, Ames/micronucleus/aberration tests	1.0
Cc1ccccc1N=Nc1ccc(N(C)C)cc1	CCRIS mutagenicity, Ames/micronucleus/aberration tests	0.0
BrCCCCBr	CCRIS mutagenicity, Ames/micronucleus/aberration tests	1.0
CCCCCCCCCCCC(=O)N(CCO)CCO	CCRIS mutagenicity, Ames/micronucleus/aberration tests	0.0
O=C(O)Cc1ccc([N+](=O)[O-])cc1	CCRIS mutagenicity, Ames/micronucleus/aberration tests	0.0
CC(C)(O)C#N	CCRIS mutagenicity, Ames/micronucleus/aberration tests	0.0
CC(=O)O	CCRIS mutagenicity, Ames/micronucleus/aberration tests	0.0
Oc1ccc(Cl)cc1Cc1ccccc1	CCRIS mutagenicity, Ames/micronucleus/aberration tests	0.0
Nc1ccc(Oc2ccc(N)cc2)cc1	CCRIS mutagenicity, Ames/micronucleus/aberration tests	0.0
Cc1cc(=O)oc2cc(O)ccc12	CCRIS mutagenicity, Ames/micronucleus/aberration tests	0.0
COc1ccc(C(=O)c2ccccc2)c(O)c1	CCRIS mutagenicity, Ames/micronucleus/aberration tests	0.0
Cl/C=C\Cl	CCRIS mutagenicity, Ames/micronucleus/aberration tests	0.0
ClC1=C(Cl)[C@]2(Cl)[C@@H]3[C@H]4C[C@H]([C@@H]5O[C@H]45)[C@@H]3[C@@]1(Cl)C2(Cl)Cl	CCRIS mutagenicity, Ames/micronucleus/aberration tests	0.0
CCCCCCCCOc1ccc(C(=O)O)cc1	CCRIS mutagenicity, Ames/micronucleus/aberration tests	0.0
ClC(Cl)(Cl)CC1CO1 (configuration not stated)	CCRIS mutagenicity, Ames/micronucleus/aberration tests	0.0
OC[C@@H](O)[C@@H](O[C@@H]1O[C@H](CO)[C@H](O)[C@H](O)[C@H]1O)[C@H](O)[C@@H](O)CO	CCRIS mutagenicity, Ames/micronucleus/aberration tests	0.0
